Give percent control (mortality or growth inhibition) at 200 ppm for every item shown.
Test system: Diabrotica balteata (Corn Root Worm)
experimentalProtocol: Activity against Diabrotica balteata (corn root worm), maize sprouts sprayed
Format: in vivo
reportedConditions: 96 h, read-out: effect in at least one of the two categories (mortality or growth inhibition)
Procedure: Example B1: Activity Against Diabrotica balteata (Corn Root Worm) Maize sprouts placed onto an agar layer in 24-well microtiter plates were treated with aqueous test solutions prepared from 10,000 ppm DMSO stock solutions by spraying. After drying, the plates were infested with L2 larvae (6 to 10 per well). The samples were assessed for mortality and growth inhibition in comparison to untreated samples 4 days after infestation.

Take each entry in turn and give its percent control (mortality or growth inhibition) at 200 ppm.
1. CCSc1cccnc1-c1ncc2c(OCC(F)(F)C(F)(F)F)nccn12
2. CCS(=O)(=O)c1cccnc1-c1ncc2c(OCC(F)(F)C(F)(F)F)nccn12
3. CCS(=O)(=O)c1cc(Br)cnc1-c1ncc2c(OCC(F)(F)C(F)(F)F)nccn12

[reply]
≥ 80%
≥ 80%
≥ 80%

Source of measurements: patent US20220061324A1
